FYI, the data here is from patent US20230117034A1.

# studyTarget: CDK12 (nuclear staining in CAL-120 cells) (Homo sapiens)
# Construct: endogenous in cells; host or cells: CAL-120 human breast cancer cells (DSMZ ACC 459)
# Sequence (Q9NYV4 whole entry): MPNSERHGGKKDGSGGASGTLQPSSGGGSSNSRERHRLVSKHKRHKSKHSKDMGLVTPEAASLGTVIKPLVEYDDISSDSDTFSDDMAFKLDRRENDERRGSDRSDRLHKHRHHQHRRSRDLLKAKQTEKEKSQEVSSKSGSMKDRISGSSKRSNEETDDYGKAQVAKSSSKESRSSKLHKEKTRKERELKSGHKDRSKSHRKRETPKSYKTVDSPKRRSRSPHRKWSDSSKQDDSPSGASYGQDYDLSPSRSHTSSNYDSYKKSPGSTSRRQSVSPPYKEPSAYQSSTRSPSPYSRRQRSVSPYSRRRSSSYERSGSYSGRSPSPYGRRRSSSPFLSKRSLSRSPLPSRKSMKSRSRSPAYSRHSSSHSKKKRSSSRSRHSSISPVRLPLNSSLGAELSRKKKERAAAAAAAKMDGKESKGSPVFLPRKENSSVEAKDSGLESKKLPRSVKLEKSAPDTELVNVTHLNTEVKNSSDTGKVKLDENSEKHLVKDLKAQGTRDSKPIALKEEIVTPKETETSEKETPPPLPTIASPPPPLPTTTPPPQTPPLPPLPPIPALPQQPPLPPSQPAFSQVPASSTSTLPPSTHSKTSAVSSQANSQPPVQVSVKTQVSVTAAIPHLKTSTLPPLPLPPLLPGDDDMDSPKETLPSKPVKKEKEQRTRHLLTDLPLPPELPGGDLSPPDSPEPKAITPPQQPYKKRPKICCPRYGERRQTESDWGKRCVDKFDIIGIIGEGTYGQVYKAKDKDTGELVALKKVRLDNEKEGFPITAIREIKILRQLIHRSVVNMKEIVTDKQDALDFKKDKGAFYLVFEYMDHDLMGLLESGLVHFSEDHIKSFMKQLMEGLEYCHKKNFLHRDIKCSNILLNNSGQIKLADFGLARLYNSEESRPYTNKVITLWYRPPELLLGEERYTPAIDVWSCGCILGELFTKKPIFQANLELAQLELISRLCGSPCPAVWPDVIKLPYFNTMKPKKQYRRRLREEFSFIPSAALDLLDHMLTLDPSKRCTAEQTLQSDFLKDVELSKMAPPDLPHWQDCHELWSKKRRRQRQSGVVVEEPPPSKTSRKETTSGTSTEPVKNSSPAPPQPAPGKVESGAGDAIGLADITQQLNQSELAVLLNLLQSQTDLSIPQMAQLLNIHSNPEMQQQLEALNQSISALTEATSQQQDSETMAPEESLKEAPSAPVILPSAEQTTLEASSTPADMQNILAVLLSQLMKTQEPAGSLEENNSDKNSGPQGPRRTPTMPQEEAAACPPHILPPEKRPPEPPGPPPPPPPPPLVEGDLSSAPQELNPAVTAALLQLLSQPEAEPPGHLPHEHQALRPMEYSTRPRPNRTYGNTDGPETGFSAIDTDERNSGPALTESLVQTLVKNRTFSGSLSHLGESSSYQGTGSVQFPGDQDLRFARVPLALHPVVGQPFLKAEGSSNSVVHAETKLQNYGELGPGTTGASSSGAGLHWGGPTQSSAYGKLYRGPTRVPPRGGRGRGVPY
# Sequence (O75909 whole entry partner): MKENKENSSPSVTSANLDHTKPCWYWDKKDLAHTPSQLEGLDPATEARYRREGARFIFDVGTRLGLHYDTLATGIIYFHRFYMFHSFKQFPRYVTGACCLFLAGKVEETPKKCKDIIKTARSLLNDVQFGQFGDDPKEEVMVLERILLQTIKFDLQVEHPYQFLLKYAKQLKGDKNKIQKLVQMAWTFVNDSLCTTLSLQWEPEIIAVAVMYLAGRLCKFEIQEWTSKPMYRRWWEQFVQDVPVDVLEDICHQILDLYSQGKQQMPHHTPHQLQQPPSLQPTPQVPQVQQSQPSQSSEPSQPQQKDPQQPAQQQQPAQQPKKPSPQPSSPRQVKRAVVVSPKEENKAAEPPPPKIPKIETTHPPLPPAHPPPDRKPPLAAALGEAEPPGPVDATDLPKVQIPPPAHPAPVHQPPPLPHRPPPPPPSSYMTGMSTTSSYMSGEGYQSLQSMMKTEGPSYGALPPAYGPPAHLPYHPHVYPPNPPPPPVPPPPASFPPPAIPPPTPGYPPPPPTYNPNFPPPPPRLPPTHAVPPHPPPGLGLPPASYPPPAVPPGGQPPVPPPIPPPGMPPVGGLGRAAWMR
# assayText: CDK12 nuclear protein level: immunofluorescence/high content analysis (CAL-120)
# Type: cell-based
# conditionContext: CAL-120 cells, 24 h, immunofluorescence; 50% reduction of nuclear CDK12 staining intensity; median; read-out: CDK12 degradation IF, DC50- [mol/l] (median)
Hi! Just check whether DC50 is below 4 nM. Below gives Met, equal or above gives Not met.

Cc1cc2nc(CNc3nc(N4CC5CCC(C4)N5)nc4c(Br)cnn34)[nH]c2cc1C | Not met
Brc1cnn2c(NCc3nc4ccccc4[nH]3)nc(N3C[C@@H]4C[C@H]3CO4)nc12 | Not met

Does the reported DC50 of the following compound sit strictly below 4 nM? "Fc1ccc2[nH]c(CNc3nc(N4CCOCC4)nc4c(C5CCC5)cnn34)nc2c1F"
Met

Would you kindly verify if DC50 of "Brc1cnn2c(NCc3nc4ccccc4[nH]3)nc(N3CCC3)nc12" is strictly less than 4 nM?
Not met

Does the reported DC50 of the following compound sit strictly below 4 nM? "C[C@@H]1CN(c2nc(NCc3nc4cc(F)ccc4[nH]3)n3ncc(C4CC4)c3n2)C[C@H](C)N1"
Met
